All values here come from patent US7683095B2.

- Test system: apolipoprotein B (apoB) production
- Test description: apo B secretion into medium of HepG2 cells, competitive ELISA
- Assay type: cell-based, human
- Settings: Homo sapiens; apo B in medium of HepG2 cells, 24 hours incubation; read-out: IC50 concentrations
I'd be grateful if you could share measured IC50 for these entries.
Reply numerically in µg/mL, unit not repeated.

Ask: Query IC50 for COc1ccc(-c2oc3c(OC)c(OC)c(OC)c(OC)c3c(=O)c2OC)cc1OC
Result: 7.8

Ask: Query IC50 for COc1ccc(-c2cc(=O)c3c(OC)c(OC)c(OC)c(OC)c3o2)cc1OC
Result: 4.9

Ask: Query IC50 for COc1ccc(-c2cc(=O)c3c(OC)c(OC)c(OC)cc3o2)cc1OC
Result: 17.8

Ask: Query IC50 for COc1ccc(-c2cc(=O)c3c(OC)c(OC)c(OC)c(OC)c3o2)cc1
Result: 2.5
